Target: Adrenergic receptor alpha-1 (Rattus norvegicus, UniProt P15823+P23944+P43140)
Test: In vitro inhibition of [3H]prazosin binding to rat alpha-1 adrenergic receptors.
Assay type: protein assay
// map IC50 to label using bin 0 = under 80 nM, bin 1 = from 80 nM up to 800 nM, bin 2 = 800 nM and over

Problem: Categorize the following entry: COc1ccccc1N1CCN(CCC[C@H]2CCCc3c(OC)cccc32)CC1
Result: bin 0

Problem: Form field 'band' for COc1cccc2c1CCC[C@H]2CCCN1CCN(c2ccccc2)CC1
Result: bin 2

Problem: Hi there! Could you help me figure out the category for COc1ccccc1N1CCN(CCC(=O)N[C@H]2CCCc3c(OC)cccc32)CC1 please?
Result: bin 1

Problem: Class for COc1ccccc1N1CCN(CCCN[C@@H]2CCCc3c(OC)cccc32)CC1 ?
Result: bin 2

Problem: Lab log: COc1cccc2c1CCC[C@@H]2CCCN1CCN(c2ccccn2)CC1 — assign IC50 category
Result: bin 1

Problem: # bin lookup: classify COc1ccccc1N1CCN(CCC[C@@H]2CCCc3c(OC)cccc32)CC1 by its IC50
Result: bin 0

Problem: Assign a category based on measured IC50 for COc1ccccc1N1CCN(CCN[C@@H]2CCCc3c(OC)cccc32)CC1 and give only the class name.
Result: bin 2

Problem: Into which category would you place COc1cccc2c1CCC[C@@H]2CCCN1CCN(c2ccccc2)CC1 ?
Result: bin 0

Problem: State the class of the compound shown: COc1cccc2c1CCC[C@H]2CCCN1CCN(c2ccccn2)CC1
Result: bin 1

Problem: Tag the class for COc1ccccc1N1CCN(CCN[C@H]2CCCc3c(OC)cccc32)CC1
Result: bin 1

Problem: Category lookup for the compound COc1ccccc1N1CCN(CCCN[C@H]2CCCc3c(OC)cccc32)CC1
Result: bin 1

Problem: Lab note: sort COc1ccccc1N1CCN(CCC(=O)N[C@@H]2CCCc3c(OC)cccc32)CC1 into the matching IC50 band.
Result: bin 1

---

Molecular target: D(2) dopamine receptor (Rattus norvegicus)
Assay: In vitro inhibition of [3H]spiroperidol binding to rat Dopamine D2 receptors.
pIC50: −log10 of the molar value.
Given measured pIC50, output condition met if it is greater than or equal to 6 and condition not met if not.

Problem: Does pIC50 meet or surpass 6 for COc1ccccc1N1CCN(CCCN[C@H]2CCCc3c(OC)cccc32)CC1 ?
Result: condition not met

Problem: Hi, just wondering whether COc1ccccc1N1CCN(CCCN[C@@H]2CCCc3c(OC)cccc32)CC1 shows pIC50 of 6 or higher.
Result: condition not met

Problem: Record COc1cccc2c1CCC[C@H]2CCCN1CCN(c2ccccn2)CC1 ; criterion: pIC50 no lower than 6. Met?
Result: condition met

Problem: I'd appreciate it if you could say whether COc1cccc2c1CCC[C@H]2CCCN1CCN(c2ccccc2)CC1 has pIC50 at least equal to 6.
Result: condition met

Problem: Kindly determine if pIC50 recorded for COc1ccccc1N1CCN(CCN[C@@H]2CCCc3c(OC)cccc32)CC1 is above or exactly 6.
Result: condition not met

Problem: Is reported pIC50 greater than or equal to 6 here: COc1ccccc1N1CCN(CCN[C@H]2CCCc3c(OC)cccc32)CC1
Result: condition met

Problem: Is pIC50 for COc1ccccc1N1CCN(CCC(=O)N[C@H]2CCCc3c(OC)cccc32)CC1 at or above 6?
Result: condition not met

---

Test: Selectivity for D2 receptor compared to 5-HT1A receptor.
Please go through the items and note down their Selectivity.
Field format: numeric only.

Problem: What measured Selectivity goes with COc1ccccc1N1CCN(CCCN[C@@H]2CCCc3c(OC)cccc32)CC1 ?
Result: 271

Problem: Quick one: Selectivity for COc1ccccc1N1CCN(CCNC2CCCc3c(OC)cccc32)CC1 (stereo unspecified) ?
Result: 49

Problem: Item under review: COc1ccccc1N1CCN(CCCN[C@H]2CCCc3c(OC)cccc32)CC1 . Reported Selectivity?
Result: 68

Problem: Quick check: Selectivity of COc1ccccc1N1CCN(CCCNC2CCCc3c(OC)cccc32)CC1 (stereo unspecified) ?
Result: 106

Problem: Given the entry COc1cccc2c1CCCC2CCCN1CCN(c2ccccn2)CC1 (stereo unspecified) , report its measured Selectivity.
Result: 259

Problem: Form field: reported Selectivity of COc1cccc2c1CCC[C@H]2CCCN1CCN(c2ccccn2)CC1
Result: 261

---

Please respond with reported pIC50 for every item in the list.
Target: D(2) dopamine receptor (Rattus norvegicus, UniProt P61169)
Sequence (P61169 whole entry): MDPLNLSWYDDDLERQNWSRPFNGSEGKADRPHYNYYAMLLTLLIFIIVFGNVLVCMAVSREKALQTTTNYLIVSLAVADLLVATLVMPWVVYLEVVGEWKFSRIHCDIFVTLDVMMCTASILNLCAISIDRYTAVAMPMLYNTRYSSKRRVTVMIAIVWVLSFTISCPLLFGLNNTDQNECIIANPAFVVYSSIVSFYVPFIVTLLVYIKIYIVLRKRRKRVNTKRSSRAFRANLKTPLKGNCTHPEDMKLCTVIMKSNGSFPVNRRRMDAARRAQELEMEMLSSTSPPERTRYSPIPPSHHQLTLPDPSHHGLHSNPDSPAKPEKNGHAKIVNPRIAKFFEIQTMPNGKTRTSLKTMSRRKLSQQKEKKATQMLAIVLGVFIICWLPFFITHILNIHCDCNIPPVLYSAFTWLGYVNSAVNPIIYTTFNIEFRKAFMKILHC
Experiment: In vitro inhibition of [3H]spiroperidol binding to rat Dopamine D2 receptors.
Quick note: pIC50 means taking -log10 of the concentration in moles per liter.

Problem: Can you look up the measured pIC50 of COc1ccccc1N1CCN(CCC(=O)N[C@@H]2CCCc3c(OC)cccc32)CC1 for me?
Result: 6.06

Problem: Name the reported pIC50 value associated with the compound COc1cccc2c1CCC[C@@H]2CCCN1CCN(c2ccccc2)CC1
Result: 6.06

Problem: Any idea what its pIC50 is? The compound is COc1cccc2c1CCC[C@@H]2CCCN1CCN(c2ccccn2)CC1
Result: 6.06
